ASSAY METRIC: melting point

[in] Query: melting point; subject: Cc1cccc(-c2c(-c3ccc[nH]c3=O)[nH]c3ccc(C(=O)NCCCN4CCOCC4)cc23)c1 [Compound 78]
[out] 120 to 122 °C

[in] Query: melting point; subject: CC(C)c1cccc(-c2c(-c3ccc[nH]c3=O)[nH]c3ccc(C(=O)NCCCN4CCOCC4)cc23)c1 [Compound 71]
[out] 89 to 92 °C

[in] Query: melting point; subject: O=c1[nH]cccc1-c1[nH]c2ccccc2c1C1CCN(S(=O)(=O)c2ccccc2)CC1 [Compound 86]
[out] 215 to 217 °C

[in] Query: melting point; subject: Cc1ccccc1N(C)C(=O)c1ccc2[nH]c(-c3ccc[nH]c3=O)c(-c3ccccc3)c2c1 [Compound 16]
[out] 216 to 220 °C

[in] Query: melting point; subject: O=c1[nH]cccc1-c1[nH]c2ccccc2c1C1CCN(Cc2ccccc2)CC1 [Compound 85]
[out] 135 to 139 °C

[in] Query: melting point; subject: O=C(c1ccc2[nH]c(-c3ccc[nH]c3=O)c(-c3ccccc3)c2c1)N1CCc2ccccc2C1 [Compound 28]
[out] 171 to 177 °C

[in] Query: melting point; subject: O=C(c1ccc2[nH]c(-c3ccc[nH]c3=O)c(-c3ccccc3)c2c1)N1CCCCC1 [Compound 17]
[out] 182 to 186 °C

[in] Query: melting point; subject: CCN(CC)CCCNC(=O)c1ccc2[nH]c(-c3ccc[nH]c3=O)c(-c3ccccc3)c2c1 [Compound 2]
[out] 190 to 198 °C

[in] Query: melting point; subject: O=C(NCCCN1CCOCC1)c1ccc2[nH]c(-c3ccc[nH]c3=O)c(-c3ccccc3)c2c1 [Compound 1]
[out] 238 to 244 °C

[in] Query: melting point; subject: O=C(NCCCN1CCOCC1)c1ccc2[nH]c(-c3ccc[nH]c3=O)c(-c3ccc(Oc4ccccc4)cc3)c2c1 [Compound 57]
[out] 121 to 123 °C

[in] Query: melting point; subject: CN1CCCC1CCNC(=O)c1ccc2[nH]c(-c3ccc[nH]c3=O)c(-c3ccccc3)c2c1 (stereo not shown) [Compound 5]
[out] 185 to 188 °C

[in] Query: melting point; subject: CCOc1ccc(-c2c(-c3ccc[nH]c3=O)[nH]c3ccc(C(=O)NCCCN4CCOCC4)cc23)cc1 [Compound 79]
[out] 143 to 145 °C

[in] Query: melting point; subject: O=C(NCC1CCNCC1)c1ccc2[nH]c(-c3ccc[nH]c3=O)c(-c3ccccc3)c2c1 [Compound 4]
[out] 189 to 191 °C

[in] Query: melting point; subject: Cc1cc(C)cc(-c2c(-c3ccc[nH]c3=O)[nH]c3ccc(C(=O)NCCCN4CCOCC4)cc23)c1 [Compound 70]
[out] 115 to 120 °C

[in] Query: melting point; subject: O=C(c1ccccc1)N1CCC(c2c(-c3ccc[nH]c3=O)[nH]c3ccccc23)CC1 [Compound 87]
[out] 294 to 296 °C

[in] Query: melting point; subject: O=C(NCCCN1CCOCC1)c1ccc2[nH]c(-c3ccc[nH]c3=O)cc2c1 [Compound 55]
[out] 130 to 132 °C

Ref: patent US8410144B2
